# assay-system: human HSV DNA polymerase UL30 (Human herpesvirus 1 (strain 17) (HHV-1) (Human herpes simplex virus 1), UniProt P04293)
# protocol-description: biochemical
# reported-conditions: 625 pM HSV polymerase, 20 minutes at room temperature; read-out: HSV-polymerase Biochemical IC50
Attribute: IC50
Report the value in nM with no unit label.

compound	IC50 (nM)
Cn1nc(C(=O)NCc2ccc(C#N)cc2)c2c1C(=O)N(CC1(S(=O)(=O)C(C)(C)COCC(C)(C)N)CC1)CC2	117

IC50 for "CN(CCO)S(=O)(=O)C1(CN2CCc3c(C(=O)NCc4ccc(C#N)cc4)nn(C)c3C2=O)CC1" ? 74

IC50 for "COCC(C)(COC)S(=O)(=O)C1(CN2CCc3c(C(=O)NCc4ccc(C#N)cc4)nn(C)c3C2=O)CC1" ? 61

IC50 for Cn1nc(C(=O)NCc2ccc(C#N)cc2)c2c1C(=O)N(CC1(S(=O)(=O)C(C)(C)CN3CCC(O)C3)CC1)CC2 (stereo not shown) ? 21

IC50 for "Cn1nc(-c2cc(Cc3ccc(C#N)cc3)on2)c2c1C(=O)N(CC1(S(=O)(=O)C3CC3)CC1)CC2" ? 10

IC50 for Cn1nc(C(=O)NCc2ccc(Cl)cc2)c2c1C(=O)N(CC1(S(=O)(=O)C3(C(O)CN)CC3)CC1)CC2 (stereo not shown) ? 16

IC50 for "Cn1nc(C(=O)NCc2ccc(C#N)cc2)c2c1C(=O)N(CC1(S(=O)(=O)N3CC[C@@H](N)C3)CC1)CC2" ? 192

====

Attribute: pIC50
# assay-system: human CMV DNA polymerase UL54 (Human cytomegalovirus (strain AD169) (HHV-5) (Human herpesvirus 5), UniProt P08546)
# protocol-description: biochemical
// pIC50 is dimensionless: -log10 of concentration (M)

compound	recorded-number
CC(N)COCC(C)(C)S(=O)(=O)C1(CN2CCc3c(C(=O)NCc4ccc(C#N)cc4)nn(C)c3C2=O)CC1 (single isomer, unassigned)	8.40

Now examine the next entry.
pIC50 for CC(N)COCC(C)(C)S(=O)(=O)C1(CN2CCc3c(C(=O)NCc4ccc(Cl)cc4)nn(C)c3C2=O)CC1 (single isomer, unassigned) ? 9.00

====

# assay-system: human HSV DNA polymerase UL30 (Human herpesvirus 1 (strain 17) (HHV-1) (Human herpes simplex virus 1), UniProt P04293)
# protocol-description: biochemical
# reported-conditions: 625 pM HSV polymerase, 20 minutes at room temperature; read-out: HSV-polymerase Biochemical IC50
parameter-measured: pIC50
// pIC50 is dimensionless: -log10 of concentration (M)

pIC50 for Cn1nc(C(=O)NCc2ccc(C#N)cc2)c2c1C(=O)N(CC1(S(=O)(=O)C(C)(C)COCCO)CC1)CC2 [Example 87] ? 7.49

pIC50 for Cn1nc(C(=O)NCc2ccc(C#N)cc2)c2c1C(=O)N(CC1(S(=O)(=O)C(C)(C)C(O)CN)CC1)CC2 (single isomer, unassigned) [Example 199] ? 7.55

pIC50 for Cn1nc(C(=O)NCc2ccc(C#N)cc2)c2c1C(=O)N(CC1(S(=O)(=O)NC3COC3)CC1)CC2 [Example 132] ? 6.35

pIC50 for Cn1nc(C(=O)NCc2ccc(F)cc2)c2c1C(=O)N(CC1(S(=O)(=O)C3CC3)CC1)CC2 [Example 5] ? 6.38

pIC50 for Cn1nc(C(=O)NCc2ccc(C#N)cc2)c2c1C(=O)N(CC1(S(=O)(=O)NC3CCNCC3)CC1)CC2 [Example 137] ? 6.16

pIC50 for O=C(NCc1ccc(Cl)cc1)c1n[nH]c2c1CCN(CC1(S(=O)(=O)C3CC3)CC1)C2=O [Example 44] ? 6.86

pIC50 for CC1(S(=O)(=O)C2(CN3CCc4c(C(=O)NCc5ccc(Cl)cc5)nn(CCOCCO)c4C3=O)CC2)CC1 [Example 222] ? 7.37

====

# assay-system: human HSV DNA polymerase UL30 (Human herpesvirus 1 (strain 17) (HHV-1) (Human herpes simplex virus 1), UniProt P04293)
# protocol-description: biochemical
# reported-conditions: 625 pM HSV polymerase, 20 minutes at room temperature; read-out: HSV-polymerase Biochemical IC50
We label by threshold. Values of IC50 strictly beneath 200 nM are yes (1). Values of 200 nM and up are no (0).

Recorded results for 8 molecules are shown here.
molecule	assigned-class
Cn1nc(C(=O)NCc2ccc(Cl)cc2)c2c1C(=O)N(CC1(S(=O)(=O)C3CC3)CC1)CC2 [Example 4]	yes (1)
C[C@@H](NC(=O)c1nn(C)c2c1CCN(CC1(S(=O)(=O)C(C)(C)CO)CC1)C2=O)c1ccc(C#N)cc1 [Example 55]	no (0)
Cn1nc(C(=O)NCc2ccc(C#N)cc2)c2c1C(=O)N(CC1(S(=O)(=O)C(C)(C)CO)CC1)CC2 [Example 52]	yes (1)
CCS(=O)(=O)C1(CN2CCc3c(C(=O)NCc4ccc(C#N)cc4)nn(C)c3C2=O)CC1 [Example 20]	no (0)
Cc1cc(CNC(=O)c2nn(C)c3c2CCN(CC2(S(=O)(=O)C4CC4)CC2)C3=O)ccc1C#N [Example 11]	no (0)
Cn1nc(C(=O)NCc2ccc(Cl)cc2)c2c1C(=O)N(CC1(S(=O)(=O)C(C)(C)[C@@H](O)CO)CC1)CC2 [Example 190]	yes (1)
C[C@@H](N)C(=O)NCC(C)(C)S(=O)(=O)C1(CN2CCc3c(C(=O)NCc4ccc(C#N)cc4)nn(C)c3C2=O)CC1 [Example 75]	yes (1)
CNC(=O)C(C)(C)S(=O)(=O)C1(CN2CCc3c(C(=O)NCc4ccc(Cl)cc4)nn(C)c3C2=O)CC1 [Example 110]	yes (1)

Lab note: IC50 threshold 200 nM. Does this molecule come in strictly under it? Cn1nc(C(=O)NCc2ccc(C#N)cc2)c2c1C(=O)N(CC1(S(=O)(=O)NCCN)CC1)CC2 [Example 135] no (0)

Lab note: IC50 threshold 200 nM. Does this molecule come in strictly under it? CC1(S(=O)(=O)C2(CN3CCc4c(C(=O)NCc5ccc(C#N)cc5)nn(CCCO)c4C3=O)CC2)CC1 [Example 237] yes (1)

Lab note: IC50 threshold 200 nM. Does this molecule come in strictly under it? Cn1nc(C(=O)NCc2ccc(Cl)cc2)c2c1C(=O)N(CC1(S(=O)(=O)C(C)(CN)CO)CC1)CC2 (stereo not drawn) [Example 186] yes (1)

Lab note: IC50 threshold 200 nM. Does this molecule come in strictly under it? Cn1nc(C(=O)NCc2ccc(C#N)cc2)c2c1C(=O)N(CC1(S(=O)(=O)N3CC[C@@H](O)C3)CC1)CC2 [Example 126] yes (1)

====

# assay-system: human HSV DNA polymerase UL30 (Human herpesvirus 1 (strain 17) (HHV-1) (Human herpes simplex virus 1), UniProt P04293)
# protocol-description: biochemical
# reported-conditions: 625 pM HSV polymerase, 20 minutes at room temperature; read-out: HSV-polymerase Biochemical IC50
pIC50: −log10 of the molar value.
Binary classification by pIC50, with 7 as an inclusive lower bound for condition met; all other cases are condition not met.

compound	assigned-class
Cn1nc(C(=O)NCc2ccc(C#N)cc2)c2c1C(=O)N(CC1(S(=O)(=O)N3CCNCC3)CC1)CC2 [Example 133]	condition not met
Cn1nc(C(=O)NCc2ccc(Cl)cc2)c2c1C(=O)N(CC1(S(=O)(=O)C3(C(O)CO)CC3)CC1)CC2 (single isomer, unassigned) [Example 196]	condition met
Cn1nc(C(=O)NCc2ccc(C#N)cc2)c2c1C(=O)N(CC1(S(=O)(=O)C(C)(C)CN)CC1)CC2 [Example 70]	condition met

Read the next record carefully.
Quick check, pIC50 >= 7? CNCC(O)C(C)(C)S(=O)(=O)C1(CN2CCc3c(C(=O)NCc4ccc(C#N)cc4)nn(C)c3C2=O)CC1 (single isomer, unassigned) [Example 203] condition met

====

# assay-system: human HSV DNA polymerase UL30 (Human herpesvirus 1 (strain 17) (HHV-1) (Human herpes simplex virus 1))
# protocol-description: biochemical
# reported-conditions: 625 pM HSV polymerase, 20 minutes at room temperature; read-out: HSV-polymerase Biochemical IC50
parameter-measured: IC50 (nM)
Report the value in nM with no unit label.

compound	parameter-measured	recorded-number
Cn1nc(C(=O)NCc2ccc(C#N)cc2)c2c1C(=O)N(CC1(S(=O)(=O)N3CC[C@H](O)C3)CC1)CC2	IC50	67

IC50 for Cn1nc(C(=O)NCc2ccc(C#N)cc2)c2c1C(=O)N(CC1(S(=O)(=O)C3CCOC3)CC1)CC2 (single isomer, unassigned) [Example 171] ? 78

IC50 for "Cn1nc(C(=O)NCc2ccc(Cl)cc2)c2c1C(=O)N(CC1(S(=O)(=O)NCC(C)(C)O)CC1)CC2" ? 827

Where do these numbers come from? They come from patent US20250353820A1.
